- Tested on: ATP;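 further: ATP exposure 15 min at 22 °C before imaging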
- test.method.notes: switch fluorescence ratio, 500 uM ATP over buffer (Cy3 cluster intensity, sum of 5 cycles each) (fold (ratio)); higher = stronger signal-on switching upon ATP binding; sequences stand for … in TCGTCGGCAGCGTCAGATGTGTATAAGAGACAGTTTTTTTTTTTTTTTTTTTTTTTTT…TC
- setup.conditions: aptamer strand: ATP DNA aptamer (quencher-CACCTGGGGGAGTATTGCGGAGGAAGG + anchor), 100 nM annealed; ATP concentration: 500 uM
Class rule met: switch fluorescence ratio at least 1. Class rule not met: switch fluorescence ratio below 1.

[
  {
    "sequence.code": "AGGAGGAGGG",
    "assay.target": "ATP",
    "category": "rule not met"
  },
  {
    "sequence.code": "GTTGTAAAAA",
    "assay.target": "ATP",
    "category": "rule not met"
  },
  {
    "sequence.code": "AGATCGTGGG",
    "assay.target": "ATP",
    "category": "rule met"
  },
  {
    "sequence.code": "CTAATCGGTT",
    "assay.target": "ATP",
    "category": "rule not met"
  }
]

---

Overview of reported switch fluorescence ratio across a group of sequences:
- System: ATP;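 further: ATP exposure 15 min at 22 °C before imaging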
- test.method.notes: switch fluorescence ratio, 500 uM ATP over buffer (Cy3 cluster intensity, sum of 5 cycles each) (fold (ratio)); higher = stronger signal-on switching upon ATP binding; sequences stand for … in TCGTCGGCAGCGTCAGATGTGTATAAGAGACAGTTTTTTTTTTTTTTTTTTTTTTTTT…TC
- setup.conditions: aptamer strand: ATP DNA aptamer (quencher-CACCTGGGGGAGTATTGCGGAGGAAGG + anchor), 100 nM annealed; ATP concentration: 500 uM

[
  {
    "sequence.code": "ATCATTTGTT",
    "assay.target": "ATP",
    "switch fluorescence ratio": 0.991
  },
  {
    "sequence.code": "GTGGGAGGGG",
    "assay.target": "ATP",
    "switch fluorescence ratio": 1
  },
  {
    "sequence.code": "GTGGACAAGG",
    "assay.target": "ATP",
    "switch fluorescence ratio": 0.978
  },
  {
    "sequence.code": "TAATGGAGTT",
    "assay.target": "ATP",
    "switch fluorescence ratio": 1
  },
  {
    "sequence.code": "TAATATTTTT",
    "assay.target": "ATP",
    "switch fluorescence ratio": 1
  },
  {
    "sequence.code": "CATAACATAG",
    "assay.target": "ATP",
    "switch fluorescence ratio": 0.995
  },
  {
    "sequence.code": "TAGAAATGGT",
    "assay.target": "ATP",
    "switch fluorescence ratio": 0.994
  },
  {
    "sequence.code": "GCATCATATG",
    "assay.target": "ATP",
    "switch fluorescence ratio": 0.998
  },
  {
    "sequence.code": "TCTTTAAAGA",
    "assay.target": "ATP",
    "switch fluorescence ratio": 0.979
  },
  {
    "sequence.code": "GGCGGGCGCT",
    "assay.target": "ATP",
    "switch fluorescence ratio": 0.993
  }
]

---

- Tested on: ATP;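 further: ATP exposure 15 min at 22 °C before imaging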
- test.method.notes: switch fluorescence ratio, 500 uM ATP over buffer (Cy3 cluster intensity, sum of 5 cycles each) (fold (ratio)); higher = stronger signal-on switching upon ATP binding; sequences stand for … in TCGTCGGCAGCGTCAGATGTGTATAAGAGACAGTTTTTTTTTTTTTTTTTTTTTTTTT…TC
- setup.conditions: aptamer strand: ATP DNA aptamer (quencher-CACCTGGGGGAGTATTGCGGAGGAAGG + anchor), 100 nM annealed; ATP concentration: 500 uM
quantity.name: switch fluorescence ratio

[
  {
    "sequence.code": "AGGGGTATCG",
    "quantity.name": "switch fluorescence ratio",
    "assay.result": 1
  },
  {
    "sequence.code": "GCTTTTGGAG",
    "quantity.name": "switch fluorescence ratio",
    "assay.result": 1.01
  },
  {
    "sequence.code": "GGATGTGGGA",
    "quantity.name": "switch fluorescence ratio",
    "assay.result": 0.981
  },
  {
    "sequence.code": "ACCGAGGAGG",
    "quantity.name": "switch fluorescence ratio",
    "assay.result": 0.961
  },
  {
    "sequence.code": "GGTGAAGGAT",
    "quantity.name": "switch fluorescence ratio",
    "assay.result": 0.982
  },
  {
    "sequence.code": "GGCATTTTTT",
    "quantity.name": "switch fluorescence ratio",
    "assay.result": 1
  },
  {
    "sequence.code": "TAGGGGAGCA",
    "quantity.name": "switch fluorescence ratio",
    "assay.result": 1.01
  },
  {
    "sequence.code": "TAAGCTTAGT",
    "quantity.name": "switch fluorescence ratio",
    "assay.result": 1
  },
  {
    "sequence.code": "TGTTTTCTAG",
    "quantity.name": "switch fluorescence ratio",
    "assay.result": 0.99
  },
  {
    "sequence.code": "TTACACTTGT",
    "quantity.name": "switch fluorescence ratio",
    "assay.result": 1
  }
]

---

- Tested on: ATP;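 further: ATP exposure 15 min at 22 °C before imaging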
- test.method.notes: switch fluorescence ratio, 500 uM ATP over buffer (Cy3 cluster intensity, sum of 5 cycles each) (fold (ratio)); higher = stronger signal-on switching upon ATP binding; sequences stand for … in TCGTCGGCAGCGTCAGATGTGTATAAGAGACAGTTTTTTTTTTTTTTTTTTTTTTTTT…TC
- setup.conditions: aptamer strand: ATP DNA aptamer (quencher-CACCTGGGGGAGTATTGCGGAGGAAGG + anchor), 100 nM annealed; ATP concentration: 500 uM
Would you mind labelling by switch fluorescence ratio? At or over 1 is Met, under is Not met.

[
  {
    "sequence.code": "AAAAGTCGGC",
    "category": "Met"
  },
  {
    "sequence.code": "AACGCTGGCG",
    "category": "Not met"
  },
  {
    "sequence.code": "CGAAATGCTG",
    "category": "Met"
  },
  {
    "sequence.code": "TTCGAAAAAA",
    "category": "Met"
  },
  {
    "sequence.code": "AAAATTGGGC",
    "category": "Met"
  },
  {
    "sequence.code": "GGTACTTTTT",
    "category": "Met"
  },
  {
    "sequence.code": "GCGCTTAAAT",
    "category": "Met"
  },
  {
    "sequence.code": "CGTGTGGTGG",
    "category": "Not met"
  }
]
